assay: NCI Yeast Anticancer Drug Screen. Data for the mlh1 rad18 strain (AID 175); details: S. cerevisiae mlh1 rad18 strain growth inhibition; at 5.0 µM (retest, dose inferred, filed as 0.5); stronger effect = higher value
This is part of a sample that, as a whole, favours compounds with a hit. Of some 79,000 tested, about 15% had one in any assay.
For each record, write down the corresponding growth inhibition.
# output: bare number, implied unit %

Request: # get_value(readout='growth inhibition', item= S=C1C(=Nc2ccccc2)N(c2ccccc2)/C(=N\c2cccc[n+]2Cc2ccccc2)N1c1ccccc1 )
Result: -23

Request: GET /values?readout=growth inhibition&item= C/C(O)=C(/C=N/C(=S)Nc1ccc(S(N)(=O)=O)cc1)C(=O)Nc1ccccc1C
Result: 3

Request: I am curious: what growth inhibition value has been reported for Fc1ccc2c(c1)Nc1cc(F)cc(F)c1S2 ?
Result: -6

Request: Could you tell me which growth inhibition is on file for COC(=O)C1(OC(=O)CCC(=O)O)C(=O)NC2=C1C(=O)c1ccccc1C2=O (stereo not drawn) ?
Result: 1

Request: What value of growth inhibition has been reported for the following compound? O=[N+]([O-])c1ccc(CSSCc2ccc([N+](=O)[O-])cc2)cc1
Result: 10

Request: Using the record for Cc1cc(N=Nc2ccccc2C)c(N)cc1N , report its growth inhibition.
Result: -13

Request: Which growth inhibition reading was recorded for the compound NC(Cc1ccccc1)c1ccc2cccc3c2c1CC3 (stereo not drawn) ?
Result: -2

Request: Suppose we examine the compound OC(CBr)c1c(Br)ccc2ccccc12 (stereo not drawn) ; what growth inhibition value has been reported?
Result: 20

Request: Entry O=C(C[n+]1cccc2ccccc21)c1ccc(-c2ccc(C(=O)C[n+]3cccc4ccccc43)cc2)cc1 has what growth inhibition?
Result: 4

Request: # growth inhibition lookup, item N#CC(C(=O)C(=O)NC1C2CC3CC(C2)CC1C3)c1c(Cl)cccc1Cl (stereo not drawn)
Result: -1

Request: Entry under review: O=C1OC(C2OC(=O)C(=O)C2C(=O)c2ccc([N+](=O)[O-])cc2)C(C(=O)c2ccc([N+](=O)[O-])cc2)C1=O (stereo not drawn) . Reported growth inhibition?
Result: 6

Request: # input compound: O=C(O)C(Cc1cc(I)c(O)c(I)c1)C1CCCCC1 (stereo not drawn) ; wanted: its growth inhibition
Result: 6

Request: Recorded growth inhibition of CCN(CC)CCCOC(=O)C(c1ccccc1)C1CCCCC1 (stereo not drawn) , please.
Result: 41

* * *

assay: NCI Yeast Anticancer Drug Screen. Data for the bub3 strain (AID 167); conditions: S. cerevisiae bub3 mutant strain, at 5.0 µM (retest, dose inferred, filed as 0.5), stronger effect = higher value
Compounds without any hit were thinned out: in the full panel of roughly 79,000, 15% have a hit.
Recorded endpoint: growth inhibition (%)
Your answer is read as %, so omit the unit and give the number.

Request: What growth inhibition value was documented for this molecule, CN(C)C=Nc1c2ccccc2nc2ccccc12 ?
Result: 5

Request: Can you share its growth inhibition? I mean this molecule: CC1=CC(C)(C)Nc2cc(N)ccc21
Result: -74

Request: Form field: reported growth inhibition of C/C(O)=C(/C=N/C(=S)Nc1ccc(S(N)(=O)=O)cc1)C(=O)Nc1ccccc1C
Result: -13

Request: Look at this molecule and give its reported growth inhibition. O=[N+]([O-])c1cccn2nc(C3OC(CO)C(O)C3O)nc12 (centres undefined)
Result: 0

* * *

test: NCI Yeast Anticancer Drug Screen. Data for the mlh1 rad18 strain (AID 175); details: S. cerevisiae mlh1 rad18 strain growth inhibition; at 5.0 µM (retest, dose inferred, filed as 0.5)
The panel holds about 79,000 compounds, 15% with a hit somewhere; the sample as a whole holds those more often. The source made the active and inactive calls. Cut-off read from the data, not from the text of the source: active = growth inhibition above about 70%; inactive = the rest.
Valid outcomes are listed here; reply with one: active, inactive

Request: How did this test come out for O=C1CCC(C(c2ccccc2)(c2ccccc2)c2ccccc2)CC1=O (stereo not drawn) ?
Result: inactive

Request: Recorded test outcome, item CC1=C(C(=O)Nc2cc(C)ccc2C)C(c2cccc([N+](=O)[O-])c2)C(C(=O)Nc2cc(C)ccc2C)=C(C)N1
Result: inactive

Request: Lab log entry: O=C(NC1CCN(Cc2ccccc2)CC1)c1ccccc1I — outcome as called in the assay?
Result: active

Request: Recorded test call requested for CCOC(=O)n1c2ccccc2c(=O)n1CCO
Result: inactive

Request: Returns: the outcome recorded for CCC[CH2][Sn]([CH2]CCC)([O]C(=O)C(OC)c1ccccc1)[O]C(=O)C(OC)c1ccccc1 (stereo not drawn) in this assay.
Result: inactive

Request: I'd appreciate the recorded outcome for O=c1cccccc1[O-].O=c1cccccc1[O-].O=c1cccccc1[O-].[Nd+3] from this test.
Result: inactive

Request: Assay outcome for Cc1ccc(C)c(NC(=O)CCC(=O)CC(=O)c2ccncc2)c1 : what was it?
Result: inactive

Request: Short answer needed: outcome of this test for CCOC(CCl)Oc1c(C(C)C)cc(C(C)C)c(Cl)c1C (stereo not drawn) ?
Result: inactive

Request: Which result was noted for this molecule in the test: O=C1OC(c2ccccc2)=N/C1=C\c1ccc(Oc2ccc(Cl)c(Cl)c2)cc1
Result: inactive

Request: Recorded test call requested for CC(=O)OCCn1c2nc(=O)[nH]c(=O)c-2nc2cc(C)c(C)cc21
Result: inactive

Request: Please share the test call associated with CC1(C)OC(=O)C(=NNc2ccccc2[N+](=O)[O-])C(=O)O1 .
Result: inactive

Request: What did the test return for O=C1C=CC(=Nc2ccc(O)c3ncccc23)c2cccnc21 ?
Result: inactive

Request: // return assay outcome for COC(=O)c1nc(NC#N)[nH]c(=O)c1CCCCCc1cnc(NC#N)nc1
Result: inactive

Request: Look up the recorded call for COc1ccc2nccc(C(=O)CBr)c2c1 in this test.
Result: inactive

Request: Please state the recorded outcome for this molecule: Cc1cc(N(CCOS(C)(=O)=O)CCOS(C)(=O)=O)ccc1C=Nc1cc(Br)c(O)c(Br)c1
Result: inactive

Request: # fetch the recorded call for CN(C)CCOC(=O)c1ccccc1 here
Result: inactive

Request: GET /call?item= O=C(Oc1ccccc1)C1CCCCC1C(=O)Oc1ccccc1 (stereo not drawn) returns the recorded outcome of this test.
Result: inactive

Request: Field: outcome | Entry: Cc1nc(Nc2ccc(Cl)cc2)sc1C(=O)NNC(=O)C(=O)NN
Result: inactive

* * *

Experiment: NCI Yeast Anticancer Drug Screen. Data for the mec2-1 strain (AID 157)
Conditions: S. cerevisiae mec2-1 strain, at 50.0 µM (retest, dose inferred, filed as 5.0)
Experimental: Growth inhibition of yeast strains with defined genetic alterations is measured as a screen for potential anti-cancer activity. Selected strains with alterations in DNA damage repair or cell cycle control were exposed to compounds and growth inhibition was measured relative to vehicle treated controls. The strain used in this assay is mec2-1
About 79,000 compounds went through this panel and 15% of them were active in at least one assay; those are over-represented in the sample as a whole. Active and inactive are the calls of the source. Cut-off read from the data, not from the text of the source: active = growth inhibition above about 70%; inactive = the rest.
// allowed return values: class 1 (active), class 0 (inactive)

Request: What did the test return for O=C(c1ccccc1)c1ccc2c(c1Cl)C(=O)c1ccccc1C2=O ?
Result: class 0

Request: Look up the recorded call for CCCCCCCCCCCCCCCC[NH][Ge]([NH]CCCCCCCCCCCCCCCC)([NH]CCCCCCCCCCCCCCCC)[NH]CCCCCCCCCCCCCCCC in this test.
Result: class 1

Request: What call does the record list for CCc1ccc(C)nc1 ?
Result: class 0

Request: Status in this test for O=c1oc(-c2ccc(Cl)cc2[N+](=O)[O-])nc2ccccc12 ?
Result: class 0

Request: Called result for Cc1ccc(S(=O)(=O)OCCCCOS(=O)(=O)c2ccc(C)cc2)cc1
Result: class 0

Request: Entry CCOC(=O)C1c2[nH]c3ccccc3c2CCN1C(=O)c1ccc(OC)o1 (stereo not drawn) : call = ?
Result: class 0

Request: Lab log entry: O=[N+]([O-])c1cc2[nH]cnc2c([N+](=O)[O-])c1NCc1ccccc1 — outcome as called in the assay?
Result: class 0

Request: What did this assay record as the result for O=P1(NCC2CCCO2)OCC2(CO1)COP(=O)(NCC1CCCO1)OC2 (stereo not drawn) ?
Result: class 1

* * *

assay: NCI Yeast Anticancer Drug Screen. Data for the mlh1 rad18 strain (AID 175); conditions: S. cerevisiae mlh1 rad18 strain growth inhibition; at 5.0 µM (retest, dose inferred, filed as 0.5); stronger effect = higher value
About 79,000 compounds went through this panel and 15% of them were active in at least one assay; those are over-represented in the sample as a whole.
Recorded endpoint: growth inhibition (%)
Could you give me the number in %? Just the number is fine.

Request: # input molecule: CCN(CC)CCCNc1c2c(Cl)cc(Cl)cc2nc2nc(=O)[nH]c(C)c12 ; wanted: its growth inhibition
Result: 7

Request: If you can, please state the reported growth inhibition value of O=C1CSC(=S)N1Cc1ccncc1 .
Result: -16

Request: Look at this molecule and give its reported growth inhibition. CC(CN(C)C)C(/C=C/c1ccc(Cl)cc1)=N\NC(=O)c1ccccc1 (stereo not drawn)
Result: 3
